Data provenance is patent US7713994B2.

Biological target: cyclin D1/cdk 4 enzyme (Homo sapiens)
Construct: made in house; host or cells: Sf9 insect cells, recombinant baculovirus
Sequence (P11802 whole entry, species assumed): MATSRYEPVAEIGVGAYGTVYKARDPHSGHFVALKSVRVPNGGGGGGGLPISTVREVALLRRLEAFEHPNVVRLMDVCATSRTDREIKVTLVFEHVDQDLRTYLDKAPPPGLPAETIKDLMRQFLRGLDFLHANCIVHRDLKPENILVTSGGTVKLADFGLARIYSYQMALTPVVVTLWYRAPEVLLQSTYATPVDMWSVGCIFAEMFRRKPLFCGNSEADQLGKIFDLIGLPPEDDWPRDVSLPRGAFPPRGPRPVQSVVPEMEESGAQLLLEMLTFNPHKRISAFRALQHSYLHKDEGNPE
Sequence (P24385 whole entry partner, species assumed): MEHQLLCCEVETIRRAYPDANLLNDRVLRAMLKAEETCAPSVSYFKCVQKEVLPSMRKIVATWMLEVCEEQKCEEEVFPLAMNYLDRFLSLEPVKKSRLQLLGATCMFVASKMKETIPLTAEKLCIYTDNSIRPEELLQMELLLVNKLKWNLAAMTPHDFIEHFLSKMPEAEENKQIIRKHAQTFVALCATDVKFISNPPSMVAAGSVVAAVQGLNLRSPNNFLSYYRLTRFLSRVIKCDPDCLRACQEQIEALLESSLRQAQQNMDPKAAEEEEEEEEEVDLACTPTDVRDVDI
Experiment: CDK4 ELISA kinase assay (phospho-Rb ser 795 detection)
Type: biochemical
Conditions: In Vitro Enzyme Assay, cyclin D1/cdk 4, read-out: CDK4 IC50
value kind: IC50

• COc1ccc(NC=C2C(=O)NCc3cc(-c4ccc[nH]4)ccc32)cc1 = > 50 µM
• O=C1NC(=O)c2ccc(I)cc2/C1=C/NCc1cc(O)ccc1-c1ccco1 = 5.4 µM
• Nc1cccc(CNC=C2C(=O)NC(=O)c3ccccc32)c1 = 30.6 µM
• CN1CCN(c2ccc(NC=C3C(=O)NC(=O)c4ccc(C=Cc5ccccc5)cc43)cc2)CC1 = 14.3 µM
• O=C1NC(=O)c2ccccc2C1=CNc1cccc2c(O)cccc12 = 14.3 µM
• O=C1NC(=O)c2ccccc2C1=CNc1ccc(O)cc1C(=O)O = 15.9 µM
• O=C1NC(=O)c2ccccc2C1=CNCc1ccc(NS(=O)(=O)c2cccs2)cc1 = 37.3 µM
• Cc1ccccc1-c1ccc2c(c1)C(=CNc1ccc(CC#N)cc1)C(=O)NC2=O = 13.3 µM
• CN1CCN(c2ccc(NC=C3C(=O)NC(=O)c4ccc(C=CCCO)cc43)cc2)CC1 = 2.27 µM
• CN1CCN(c2ccc(NC=C3C(=O)NC(=O)c4ccc(-c5cccc(Cl)c5)cc43)cc2)CC1 = 20.7 µM
• CN1CCN(c2ccc(NC=C3C(=O)NC(=O)c4ccc(-c5ccc6c(c5)OCO6)cc43)cc2)CC1 = 2.1 µM
• CC(C)c1ccc(-c2ccc3c(c2)C(=CNCc2ccc(S(N)(=O)=O)cc2)C(=O)NC3=O)cc1 = 18.4 µM
• O=C1NC(=O)c2ccc(C=Cc3ccccn3)cc2C1=CNCc1ccc(O)c(O)c1 = 0.17 µM
• O=C1NC(=O)c2ccc(-c3cccc([N+](=O)[O-])c3)cc2C1=CNCc1ccc(O)c(O)c1 = 2.1 µM
• O=C1NC(=O)c2ccccc2C1=CNCc1cccc(NS(=O)(=O)CC(F)(F)F)c1 = 9.6 µM

----------
Target: cyclin D1/cdk 4 enzyme (Homo sapiens)
Construct: made in house; host or cells: Sf9 insect cells, recombinant baculovirus
Assay: CDK4 ELISA kinase assay (phospho-Rb ser 795 detection)
Type: biochemical
Conditions: In Vitro Enzyme Assay, cyclin D1/cdk 4, read-out: CDK4 IC50
pIC50: −log10 of the molar value.
pIC50 values for the compounds below.
value kind: pIC50

* CN1CCN(c2cnc(N/C=C3\C(=O)NC(=O)c4ccc(-c5ccoc5)cc43)cn2)CC1 | 5.89
* O=C1NC(=O)c2ccc(-c3csc4ccccc34)cc2C1=CNCc1ccc(O)c(O)c1 | 5.66
* CC(C)(C)c1ccc2c(c1)/C(=C/NCc1ccc(-c3ccoc3)c(O)c1)C(=O)NC2=O | 7.70
* O=C(O)C=Cc1cccc(-c2ccc3c(c2)C(=CNCc2ccc(O)c(O)c2)C(=O)NC3=O)c1 | 6.40
* O=C1NC(=O)c2ccc(-c3ccc(Cl)cc3Cl)cc2C1=CNCc1ccc(O)c(O)c1 | 6.66
* CSc1ccc(-c2ccc3c(c2)C(=CNCc2ccc(O)c(O)c2)C(=O)NC3=O)cc1 | 6.33
* N#CCc1ccc(NC=C2C(=O)NC(=O)c3ccc(-c4cccc(C(=O)O)c4)cc32)cc1 | 5.00
